tested on: Escherichia coli TOP10; test: shrunken log2 fold change of peptide-encoding DNA abundance (4.5 h post-induction vs induction); higher = less antimicrobial activity (less host growth inhibition); conditions: time post-induction: 4.5 h; library: site-saturation at positions 5, 18, 19, 20
shrunken log2 fold change values by entry
measurement_label: shrunken log2 fold change

>>> df
             item_sequence          measurement_label  measured
0  RRIRMRPPRLPRPRPRPTLIPRP  shrunken log2 fold change   0.00162
1  RRIRSRPPRLPRPRPRPQEFPRP  shrunken log2 fold change  -0.00884
2  RRIRQRPPRLPRPRPRPIEEPRP  shrunken log2 fold change  -0.00208
3  RRIRARPPRLPRPRPRPFWVPRP  shrunken log2 fold change   -0.0841
4  RRIRVRPPRLPRPRPRPCQHPRP  shrunken log2 fold change     -0.09
5  RRIRERPPRLPRPRPRPDNDPRP  shrunken log2 fold change    -0.259
6  RRIRIRPPRLPRPRPRPCRKPRP  shrunken log2 fold change   -0.0747
7  RRIRIRPPRLPRPRPRPGETPRP  shrunken log2 fold change    0.0122

###

tested on: Escherichia coli TOP10; assay: shrunken log2 fold change of peptide-encoding DNA abundance (4.5 h post-induction vs induction); higher = less antimicrobial activity (less host growth inhibition); conditions: time post-induction: 4.5 h; library: site-saturation at positions 5, 18, 19, 20
Quick list: shrunken log2 fold change per entry.
measurement_label: shrunken log2 fold change

              item_sequence  measured
 0  RRIRSRPPRLPRPRPRPDKWPRP     0.858
 1  RRIRERPPRLPRPRPRPTQRPRP    0.0475
 2  RRIRIRPPRLPRPRPRPAQHPRP   -0.0384
 3  RRIRSRPPRLPRPRPRPINFPRP    -0.168
 4  RRIRNRPPRLPRPRPRPKWTPRP   -0.0342
 5  RRIRFRPPRLPRPRPRPLWNPRP     -0.89
 6  RRIRRRPPRLPRPRPRPRLAPRP      0.62
 7  RRIRIRPPRLPRPRPRPTKGPRP    0.0205
 8  RRIRVRPPRLPRPRPRPKQWPRP     0.326
 9  RRIRIRPPRLPRPRPRPVANPRP    -0.109
10  RRIRPRPPRLPRPRPRPKVPPRP     0.303
11  RRIRLRPPRLPRPRPRPPNGPRP   -0.0536
12  RRIRGRPPRLPRPRPRPQGLPRP     0.335
13  RRIRHRPPRLPRPRPRPHHVPRP     -0.35
14  RRIRGRPPRLPRPRPRPKRSPRP     0.301
15  RRIRFRPPRLPRPRPRPSCLPRP    -0.502
16  RRIRMRPPRLPRPRPRPQPVPRP     0.622
17  RRIRWRPPRLPRPRPRPIAFPRP     0.171
18  RRIRDRPPRLPRPRPRPRWDPRP     0.196
19  RRIRLRPPRLPRPRPRPMGKPRP    -0.353
20  RRIRERPPRLPRPRPRPEDYPRP   0.00235
21  RRIRCRPPRLPRPRPRPTFQPRP   -0.0555
22  RRIRRRPPRLPRPRPRPCSRPRP   0.00396
23  RRIRKRPPRLPRPRPRPSAPPRP     0.504
24  RRIRQRPPRLPRPRPRPIQMPRP   -0.0176
25  RRIRIRPPRLPRPRPRPLVSPRP    -0.244
26  RRIRGRPPRLPRPRPRPPAWPRP      1.34
27  RRIRPRPPRLPRPRPRPNMQPRP    -0.313
28  RRIRDRPPRLPRPRPRPEQKPRP    0.0533
29  RRIRHRPPRLPRPRPRPHESPRP   -0.0218
30  RRIRSRPPRLPRPRPRPGIEPRP     0.158
31  RRIRPRPPRLPRPRPRPIKQPRP     0.109
32  RRIRSRPPRLPRPRPRPKEQPRP   -0.0517
33  RRIRPRPPRLPRPRPRPHVVPRP    -0.136
34  RRIRKRPPRLPRPRPRPSTRPRP    -0.114
35  RRIRFRPPRLPRPRPRPQLFPRP     0.104
36  RRIRKRPPRLPRPRPRPFTVPRP  -0.00947
37  RRIRPRPPRLPRPRPRPWRAPRP     0.185
38  RRIRLRPPRLPRPRPRPCGTPRP   -0.0819
39  RRIRSRPPRLPRPRPRPSNYPRP    -0.869
40  RRIRTRPPRLPRPRPRPTYAPRP   -0.0854
41  RRIRLRPPRLPRPRPRPVDTPRP    -0.142
42  RRIRHRPPRLPRPRPRPGDCPRP   -0.0887
43  RRIRHRPPRLPRPRPRPGLVPRP    0.0437
44  RRIRSRPPRLPRPRPRPHATPRP     0.378
45  RRIRWRPPRLPRPRPRPNSCPRP    0.0578
46  RRIRCRPPRLPRPRPRPADSPRP   -0.0251
47  RRIRERPPRLPRPRPRPNDKPRP    -0.507
48  RRIRARPPRLPRPRPRPPGCPRP     0.746
49  RRIRFRPPRLPRPRPRPMFKPRP    -0.581
50  RRIRHRPPRLPRPRPRPGRDPRP     0.135
51  RRIRERPPRLPRPRPRPYTEPRP    0.0251
52  RRIRVRPPRLPRPRPRPKVCPRP   -0.0503
53  RRIRARPPRLPRPRPRPLMFPRP     0.187
54  RRIRLRPPRLPRPRPRPTLSPRP   -0.0659
55  RRIRPRPPRLPRPRPRPVVLPRP   0.00791
56  RRIRARPPRLPRPRPRPCCQPRP     0.102
57  RRIRLRPPRLPRPRPRPNTCPRP    -0.823
58  RRIRIRPPRLPRPRPRPRIRPRP    -0.204

###

test system: Escherichia coli TOP10; assay: shrunken log2 fold change of peptide-encoding DNA abundance (4.5 h post-induction vs induction); higher = less antimicrobial activity (less host growth inhibition); settings: time post-induction: 4.5 h; library: site-saturation at positions 5, 18, 19, 20;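 also: peptides expressed intracellularly from a pBAD plasmid library in pooled LB shake-flask culture, induced with 0.3% L-arabinose, DNA abundance read by NGS, three biological replicates, DESeq2 with apeglm shrinkage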
Listing of entries alongside the reported shrunken log2 fold change.
measurement_label: shrunken log2 fold change

              item_sequence          measurement_label  measured
 0  RRIRDRPPRLPRPRPRPKLFPRP  shrunken log2 fold change     0.168
 1  RRIRDRPPRLPRPRPRPANFPRP  shrunken log2 fold change    0.0245
 2  RRIRVRPPRLPRPRPRPKYTPRP  shrunken log2 fold change    -0.421
 3  RRIRGRPPRLPRPRPRPSSYPRP  shrunken log2 fold change    -0.128
 4  RRIRHRPPRLPRPRPRPMCPPRP  shrunken log2 fold change   -0.0218
 5  RRIRCRPPRLPRPRPRPVFMPRP  shrunken log2 fold change    -0.359
 6  RRIRDRPPRLPRPRPRPLLRPRP  shrunken log2 fold change    0.0308
 7  RRIRSRPPRLPRPRPRPAPPPRP  shrunken log2 fold change     0.458
 8  RRIRARPPRLPRPRPRPRLDPRP  shrunken log2 fold change     0.291
 9  RRIRSRPPRLPRPRPRPIRYPRP  shrunken log2 fold change      0.31
10  RRIRGRPPRLPRPRPRPGEKPRP  shrunken log2 fold change       1.4
11  RRIRQRPPRLPRPRPRPIFGPRP  shrunken log2 fold change  -0.00652
12  RRIRSRPPRLPRPRPRPSWCPRP  shrunken log2 fold change    -0.132
13  RRIRRRPPRLPRPRPRPDWLPRP  shrunken log2 fold change     0.365
14  RRIRERPPRLPRPRPRPLLDPRP  shrunken log2 fold change   -0.0911
15  RRIRQRPPRLPRPRPRPAEDPRP  shrunken log2 fold change    0.0312
16  RRIRKRPPRLPRPRPRPLPKPRP  shrunken log2 fold change      0.54
17  RRIRARPPRLPRPRPRPSLAPRP  shrunken log2 fold change      0.54
18  RRIRIRPPRLPRPRPRPMNQPRP  shrunken log2 fold change    -0.169
19  RRIRKRPPRLPRPRPRPWQDPRP  shrunken log2 fold change   -0.0361
20  RRIRQRPPRLPRPRPRPCWAPRP  shrunken log2 fold change    -0.139
21  RRIRWRPPRLPRPRPRPNRNPRP  shrunken log2 fold change    -0.602
22  RRIRSRPPRLPRPRPRPKQVPRP  shrunken log2 fold change    0.0497
23  RRIRMRPPRLPRPRPRPQMCPRP  shrunken log2 fold change    -0.239
24  RRIRERPPRLPRPRPRPSCSPRP  shrunken log2 fold change    -0.412
25  RRIRVRPPRLPRPRPRPCLKPRP  shrunken log2 fold change    -0.469
26  RRIRIRPPRLPRPRPRPTPPPRP  shrunken log2 fold change     0.464
27  RRIRHRPPRLPRPRPRPPFLPRP  shrunken log2 fold change    -0.251
28  RRIRNRPPRLPRPRPRPHLKPRP  shrunken log2 fold change    -0.875
29  RRIRHRPPRLPRPRPRPFGAPRP  shrunken log2 fold change   -0.0114
30  RRIRFRPPRLPRPRPRPPWQPRP  shrunken log2 fold change     0.361
31  RRIRARPPRLPRPRPRPAADPRP  shrunken log2 fold change      1.13
32  RRIRMRPPRLPRPRPRPIPYPRP  shrunken log2 fold change     0.013
33  RRIRQRPPRLPRPRPRPHKEPRP  shrunken log2 fold change     0.114
34  RRIRPRPPRLPRPRPRPMNDPRP  shrunken log2 fold change    -0.329
35  RRIRHRPPRLPRPRPRPRQSPRP  shrunken log2 fold change     0.144
36  RRIRIRPPRLPRPRPRPCVKPRP  shrunken log2 fold change    -0.828
37  RRIRQRPPRLPRPRPRPIPWPRP  shrunken log2 fold change    0.0351
38  RRIRRRPPRLPRPRPRPLYVPRP  shrunken log2 fold change    -0.379
39  RRIRWRPPRLPRPRPRPHWAPRP  shrunken log2 fold change    -0.102
40  RRIRGRPPRLPRPRPRPNPIPRP  shrunken log2 fold change    0.0839
41  RRIRFRPPRLPRPRPRPSRCPRP  shrunken log2 fold change   -0.0633
42  RRIRCRPPRLPRPRPRPSYLPRP  shrunken log2 fold change        -1
43  RRIRVRPPRLPRPRPRPNWNPRP  shrunken log2 fold change    -0.318
44  RRIRGRPPRLPRPRPRPRVWPRP  shrunken log2 fold change     0.547
45  RRIRYRPPRLPRPRPRPCIKPRP  shrunken log2 fold change      1.75
46  RRIRWRPPRLPRPRPRPAWAPRP  shrunken log2 fold change     0.579
47  RRIRHRPPRLPRPRPRPHAMPRP  shrunken log2 fold change  -0.00419
48  RRIRLRPPRLPRPRPRPIHPPRP  shrunken log2 fold change    -0.168
49  RRIRRRPPRLPRPRPRPFGVPRP  shrunken log2 fold change    0.0764
50  RRIRARPPRLPRPRPRPNQQPRP  shrunken log2 fold change     0.284
